Taken from patent US12569502B2.

- MEASUREMENT TARGET: GPR39 receptors on m39-20 cell lines (Mus musculus, UniProt Q5U431, T447P)
- Construct: P2A-mCherry (C); expressed in transfected cells
- Sequence (Q5U431 whole entry T447P): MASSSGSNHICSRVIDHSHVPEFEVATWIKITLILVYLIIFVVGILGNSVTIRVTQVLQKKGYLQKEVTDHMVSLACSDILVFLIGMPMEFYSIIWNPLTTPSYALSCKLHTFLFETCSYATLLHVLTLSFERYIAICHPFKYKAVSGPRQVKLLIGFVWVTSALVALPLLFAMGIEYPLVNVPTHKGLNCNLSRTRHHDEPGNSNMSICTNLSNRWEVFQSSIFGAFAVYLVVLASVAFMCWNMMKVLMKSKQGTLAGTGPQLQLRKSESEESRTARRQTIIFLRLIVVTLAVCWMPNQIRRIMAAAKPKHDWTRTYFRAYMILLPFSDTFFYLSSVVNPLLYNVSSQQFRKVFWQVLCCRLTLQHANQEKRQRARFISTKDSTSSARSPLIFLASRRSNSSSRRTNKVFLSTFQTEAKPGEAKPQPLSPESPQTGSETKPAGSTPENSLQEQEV
- PROCEDURE SUMMARY: FLIPR calcium imaging on m39-20 cell lines stably expressing murine-derived GPR39
- Format: cell-based
- TEST PARAMETERS: m39-20 cells, no zinc ions; read-out: Only bile acid EC50
Hi there, I'd appreciate the recorded EC50 for every entry that follows.

The recorded EC50 for entry C[C@H](CCC(=O)NCC(=O)O)[C@H]1CC[C@H]2[C@@H]3CC[C@@H]4C[C@H](OS(=O)(=O)O)CC[C@]4(C)[C@H]3CC[C@]12C equals 47.9 µM

The measured EC50 associated with C[C@H](CCC(=O)NCCS(=O)(=O)O)[C@H]1CC[C@H]2[C@@H]3CC[C@@H]4C[C@H](OS(=O)(=O)O)CC[C@]4(C)[C@H]3C[C@H](O)[C@]12C reads > 200 µM

Kindly note the recorded EC50 for C[C@H](CCC(=O)O)[C@H]1CC[C@H]2[C@@H]3CC[C@@H]4C[C@H](OS(=O)(=O)O)CC[C@]4(C)[C@H]3C[C@H](O)[C@]12C , which is > 200 µM

According to the records, this compound C[C@H](CCC(=O)O)[C@H]1CC[C@H]2[C@@H]3[C@@H](O)C[C@@H]4C[C@H](O)CC[C@]4(C)[C@H]3CC[C@]12C displays EC50 of > 200 µM

Measured EC50, C[C@H](CCC(=O)NCC(=O)O)[C@H]1CC[C@H]2[C@@H]3CC[C@@H]4C[C@H](O)CC[C@]4(C)[C@H]3C[C@H](O)[C@]12C : > 200 µM

Short answer for C[C@H](CCC(=O)NCC(=O)O)[C@H]1CC[C@H]2[C@@H]3[C@H](O)C[C@@H]4C[C@H](O)CC[C@]4(C)[C@H]3CC[C@]12C : EC50 was > 200 µM

EC50 reading for C[C@H](CCC(=O)O)[C@H]1CC[C@H]2[C@@H]3[C@@H](O)C[C@@H]4C[C@H](OS(=O)(=O)O)CC[C@]4(C)[C@H]3CC[C@]12C : > 200 µM

Memo: C[C@H](CCC(=O)O)[C@H]1CC[C@H]2[C@@H]3CC[C@@H]4C[C@H](O)CC[C@]4(C)[C@H]3CC[C@]12C , reported EC50: > 200 µM

According to the records, this compound C[C@H](CCC(=O)NCC(=O)O)[C@H]1CC[C@H]2[C@@H]3[C@H](O)C[C@@H]4C[C@H](OS(=O)(=O)O)CC[C@]4(C)[C@H]3CC[C@]12C displays EC50 of > 200 µM

Form field EC50, entry C[C@H](CCC(=O)NCCS(=O)(=O)O)[C@H]1CC[C@H]2[C@@H]3CC[C@@H]4C[C@H](O)CC[C@]4(C)[C@H]3CC[C@]12C : 44 µM

The compound listed as C[C@H](CCC(=O)O)[C@H]1CC[C@H]2[C@@H]3[C@H](O)C[C@@H]4C[C@H](O)CC[C@]4(C)[C@H]3CC[C@]12C shows EC50 equal to > 200 µM

Value of measured EC50 for the entry C[C@H](CCC(=O)O)[C@H]1CC[C@H]2[C@@H]3CC[C@@H]4C[C@H](OS(=O)(=O)O)CC[C@]4(C)[C@H]3CC[C@]12C : 41 µM

According to the records, this compound C[C@H](CCC(=O)O)[C@H]1CC[C@H]2[C@@H]3CC[C@@H]4C[C@H](O)CC[C@]4(C)[C@H]3C[C@H](O)[C@]12C displays EC50 of > 200 µM

What the record says about C[C@H](CCC(=O)NCCS(=O)(=O)O)[C@H]1CC[C@H]2[C@@H]3CC[C@@H]4C[C@H](O)CC[C@]4(C)[C@H]3C[C@H](O)[C@]12C : EC50 is > 200 µM

EC50 for C[C@H](CCC(=O)NCC(=O)O)[C@H]1CC[C@H]2[C@@H]3[C@H](O)C[C@@H]4C[C@H](O)CC[C@]4(C)[C@H]3C[C@H](O)[C@]12C is > 200 µM

Lab note: measured EC50 of C[C@H](CCC(=O)O)[C@H]1CC[C@H]2[C@@H]3[C@H](O)C[C@@H]4C[C@H](O)CC[C@]4(C)[C@H]3C[C@H](O)[C@]12C was > 200 µM

// EC50 value for C[C@H](CCC(=O)NCC(=O)O)[C@H]1CC[C@H]2[C@@H]3CC[C@@H]4C[C@H](OS(=O)(=O)O)CC[C@]4(C)[C@H]3C[C@H](O)[C@]12C : > 200 µM

Notebook: C[C@H](CCC(=O)NCCS(=O)(=O)O)[C@H]1CC[C@H]2[C@@H]3[C@@H](O)C[C@@H]4C[C@H](OS(=O)(=O)O)CC[C@]4(C)[C@H]3CC[C@]12C , EC50 read as > 200 µM

Per the record, C[C@H](CCC(=O)NCCS(=O)(=O)O)[C@H]1CC[C@H]2[C@@H]3[C@H](O)C[C@@H]4C[C@H](OS(=O)(=O)O)CC[C@]4(C)[C@H]3CC[C@]12C has EC50 of > 200 µM

EC50 reading for C[C@H](CCC(=O)NCC(=O)O)[C@H]1CC[C@H]2[C@@H]3[C@@H](O)C[C@@H]4C[C@H](O)CC[C@]4(C)[C@H]3CC[C@]12C : > 200 µM
